- target: Short transient receptor potential channel 4 (Mus musculus) (UniProt Q9QUQ5)
- Sequence (Q9QUQ5 whole entry, looked up): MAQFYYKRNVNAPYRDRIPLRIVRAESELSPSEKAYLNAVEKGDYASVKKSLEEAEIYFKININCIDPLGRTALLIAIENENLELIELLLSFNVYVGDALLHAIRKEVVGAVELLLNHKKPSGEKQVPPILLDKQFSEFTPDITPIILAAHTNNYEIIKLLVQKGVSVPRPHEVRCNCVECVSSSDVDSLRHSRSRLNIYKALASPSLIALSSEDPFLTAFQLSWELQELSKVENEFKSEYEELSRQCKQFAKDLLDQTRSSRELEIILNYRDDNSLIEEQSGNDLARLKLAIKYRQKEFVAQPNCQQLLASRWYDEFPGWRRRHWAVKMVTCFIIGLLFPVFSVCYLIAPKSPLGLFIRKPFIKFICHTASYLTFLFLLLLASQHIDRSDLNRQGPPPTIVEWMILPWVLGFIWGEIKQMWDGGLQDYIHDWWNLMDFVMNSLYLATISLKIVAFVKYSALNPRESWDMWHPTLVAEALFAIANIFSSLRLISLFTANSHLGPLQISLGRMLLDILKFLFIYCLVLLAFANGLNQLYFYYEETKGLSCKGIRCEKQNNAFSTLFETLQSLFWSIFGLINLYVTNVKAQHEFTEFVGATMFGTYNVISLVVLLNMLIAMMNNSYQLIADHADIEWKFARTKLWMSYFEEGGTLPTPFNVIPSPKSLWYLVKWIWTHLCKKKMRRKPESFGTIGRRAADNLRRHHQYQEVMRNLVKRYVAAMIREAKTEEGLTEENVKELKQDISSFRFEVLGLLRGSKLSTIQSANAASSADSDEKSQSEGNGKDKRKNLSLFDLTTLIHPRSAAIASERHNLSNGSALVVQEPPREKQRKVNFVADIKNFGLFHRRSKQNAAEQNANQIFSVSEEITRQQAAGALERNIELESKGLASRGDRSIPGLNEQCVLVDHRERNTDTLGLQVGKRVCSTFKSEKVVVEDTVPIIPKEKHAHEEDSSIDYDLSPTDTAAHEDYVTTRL
- testDescription: blockers of DAMGO-evoked TRPC4 calcium flux – cell-based, Fluo4, HEK293 TRPC4beta/mu-opioid, confirmation (AID 2636)
- conditionParameters: at 10 µM; active compounds read high
The source made the active and inactive calls.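 How the source made its calls: active means calcium signal cut by more than 3 SD below the full-agonist control yet still positive, in both repeats and the earlier primary screen; inactive means the rest.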
assayMetric: inhibition

# compound, inhibition
rows = [
    ("CN(C)CCCNc1nc(N)c([N+](=O)[O-])c(NCc2ccccc2)n1", "inactive"),
    ("Clc1ccc(N=C2SCC3CCCCN23)cc1 (stereo unspecified)", "inactive"),
    ("COc1ccccc1CNCc1cc(Br)ccc1OC", "inactive"),
    ("Cc1c(N2C(=O)/C(=C\\C3CC=CCC3)SC2=S)c(=O)n(-c2ccccc2)n1C (stereo unspecified)", "inactive"),
    ("Oc1ccc(-c2[nH]ncc2-c2ccc(Br)cc2)c(O)c1", "inactive"),
    ("N#Cc1c(NC(=O)C2CC(Cl)=CCC2C(=O)O)sc2c1CCCCC2 (stereo unspecified)", "51% (active)"),
    ("CCCNCc1cc(Br)ccc1OCC(=O)NCCc1ccccc1", "99% (active)"),
    ("O=C(CNc1ccc(Br)cc1)c1ccc(O)cc1", "82% (active)"),
]

Q: Input CCn1c(O)c(N=NC(=O)c2cccc(S(=O)(=O)N3CCCCC3)c2)c2ccccc21 , output reported inhibition.
A: inactive

Q: Supply inhibition value. Item: COc1ccc(S(=O)(=O)N2CCCCCC2)cc1C(=O)N(C)Cc1ccc(Cl)cc1Cl
A: inactive

Q: For the compound CSc1ccc(/C=N\NC(=O)CC(=O)NC(C)C)cc1 , report inhibition.
A: inactive

----------
- testDescription: nonspecific potentiation of DAMGO calcium response – cell-based, HEK293 mu-opioid receptor line, counter-screen for TRPC4 allosteric potentiator project, confirmation (AID 449724);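 further: HEK293 cells carrying mu-opioid receptor only with no TRPC4 channel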
- conditionParameters: HEK293 mu-opioid receptor cells, Fluo-4 calcium flux, at 10 µM, compound added before EC20 DAMGO stimulus; active compounds read high
Activity calls are given as the source filed them.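 Rule for the calls: active = calcium signal rise more than 3 SD above the low-dose agonist control mean, in both duplicate plates and the primary screen; inactive = the rest.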
assayMetric: activation

Example compounds with recorded activation:
# compound, activation
records = [
    ("Clc1ccc2nc(N3CCNCC3)nc(-c3ccccc3)c2c1", "inactive"),
    ("NS(=O)(=O)c1ccc(CCNCc2cc(Br)ccc2OCc2ccccc2)cc1", "inactive"),
    ("Cc1oc(-c2ccc(Cl)cc2)nc1CN1CCC(C(=O)N2CCc3ccccc3C2)CC1", "inactive"),
    ("CN(CC(=O)NC1CCCc2ccccc21)C1CCCCC1 (configuration not stated)", "inactive"),
    ("CN(C)c1ccc(C(CNC(=O)Cc2cccc3ccccc23)N(C)C)cc1 (configuration not stated)", "inactive"),
    ("COC(=O)CSc1nn(-c2ccc(F)cc2)c(=S)s1", "inactive"),
    ("Cc1oc(-c2cccc(F)c2)nc1CN(Cc1ccccc1)C[C@@H]1CCC(=O)N1", "inactive"),
    ("CCN(CC)c1ccc(/C=N/NC(=O)CNC(=O)c2ccccn2)cc1", "inactive"),
]

Q: Name the recorded activation of the compound listed here: CN(C(=O)CSc1nc(-c2ccc(C(C)(C)C)cc2)c(C#N)c(=O)[nH]1)C1CCCCC1
A: inactive

Q: Give me measured activation, please, for this compound: O=C(CN1CCN(c2ncc(C(F)(F)F)cc2Cl)CC1)N1CCN(c2ncc(C(F)(F)F)cc2Cl)CC1
A: inactive

Q: Return reported activation. Input compound: COc1ccc(C(CNC(=O)Cc2cccs2)N(C)C)cc1 (configuration not stated)
A: inactive

Q: Determine its reported activation: O=S(=O)(NCC1NCCc2ccccc21)c1ccccc1 (configuration not stated)
A: inactive

Q: For the compound CCCC[n+]1c2ccccc2cc2ccccc21 , give its measured activation value.
A: inactive

----------
- System: TRPC4 (mouse), co-expressed with 5HT1a in HEK293
- testDescription: enhancement of serotonin-evoked TRPC4 response – cell-based, second counter screen, HEK293 TRPC4/5HT1a, Fluo-4, counter-screen for TRPC4 potentiator project, confirmation (AID 434979)
- conditionParameters: Fluo-4 calcium flux, at 10 µM, serotonin added at its EC20 dose
Calls of active or inactive are those of the source.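 How the source made its calls: active means signal rise over 3 SD above mean of control wells given weak agonist, in both repeats and first screen; inactive means the rest.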
The categories you may choose from are 1 = active, 0 = inactive

Q: Record request — test call for COc1cc2ccccc2c2c1CCCC2=O
A: 0

Q: Given Cc1c(N2C(=O)/C(=C\C3CC=CCC3)SC2=S)c(=O)n(-c2ccccc2)n1C (stereo unspecified) , state the outcome it received in this test.
A: 0

Q: How was Cc1cc(S(=O)(=O)N2CCC(N3CCCCC3)CC2)ccc1-n1cnnn1 classified in this test?
A: 1

Q: Assay outcome for CN1CCN(Cc2nc3c(c(=O)[nH]c(=O)n3C)n2Cc2c(F)cccc2Cl)CC1 : what was it?
A: 1

Q: GET /call?item= Cc1ccc(Cn2c(=N)c(C(=O)NC3CCCC3)cc3c(=O)n4ccccc4nc32)cc1 returns the recorded outcome of this test.
A: 1

Q: For COc1ccc(N2CCN(Cc3nc4ccccc4n3C)CC2)cc1 , what call appears in the results of this test?
A: 0

Q: Entry Cc1nn(C(=O)c2cccnc2)c(C)c1Sc1ccccc1 : call = ?
A: 0

Q: Name the outcome recorded for NCCc1nnc(SCc2ccccc2)o1 in the assay.
A: 0

Q: Entry COc1ccccc1OCC(=O)Nc1ccc(Cl)cc1 : call = ?
A: 0

Q: Recorded test outcome, item Cc1cccc(NC(=O)CNC(=O)CN2C(=O)NC3(CCCCC3C)C2=O)c1C (stereo unspecified)
A: 0

Q: What classification did CCCNC(=O)c1nnsc1S(=O)c1ccc(Cl)cc1 (stereo unspecified) end up with in this test?
A: 0

----------
- Tested on: transient receptor potential cation channel C4 beta (TRPC4), mouse
- testDescription: TRPC4 cation channel opening, second retest – cell-based, second round, Fluo4, HEK293 TRPC4beta/mu-opioid, 1 µM, confirmation (AID 2461)
- conditionParameters: Fluo4 calcium fluorescence, at 1 µM; active compounds read high
Calls of active or inactive are those of the source.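 Rule for the calls: active = primary screen active and over 50% activation in each of two duplicate runs; inactive = the rest.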
assayMetric: activation

Known activation results, listed for orientation:
# compoundString, activation
records = [
    ("COc1ccc(-n2cc(CNCc3cnc4ccccn34)c(-c3cccc(F)c3)n2)cc1", "inactive"),
    ("COc1ccc(-c2cc(C(F)(F)F)nc(N3CCN(C)CC3)n2)cc1", "inactive"),
    ("CCOc1ccc(Br)cc1/C=N/O", "inactive"),
    ("CN(Cc1ccccc1)C(=O)c1oc(=O)c2ccccc2c1-c1ccccc1", "inactive"),
    ("CCOC(=O)c1sc2c(c1C)c(=O)n(CCO)c(=O)n2Cc1ccccc1", "inactive"),
]

Consider the additional molecule presented here.
Q: // output activation; input CCn1c2ccccc2c2cc(NC(=O)CN3CCCC3)ccc21 ; system transient receptor potential cation channel C4 beta (TRPC4), mouse
A: inactive

----------
- target: Short transient receptor potential channel 4 (Mus musculus) (UniProt Q9QUQ5)
- testDescription: calcium flux activators in TRPC4/5HT1a cells, counter-screen for TRPC4 activator project, cell-based, second counter screen, HEK293 TRPC4/5HT1a, Fluo-4 (AID 434977)
- conditionParameters: Fluo-4 calcium flux, at 10 µM
Calls of active or inactive are those of the source.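 Rule for the calls: active = calcium signal rise above buffer-control mean plus 5 SD in both duplicates, and also a hit in the primary screen; inactive = the rest.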
Use one of these outcomes when replying: YES (active), NO (inactive)

Q: Each compound tested received a call. Report the one for Cc1sc2ncnc(NCC(c3ccccc3)N(C)C)c2c1C (stereo not given) .
A: YES

Q: Kindly provide the recorded test outcome for the following compound: Cc1ccc(Cn2c(Cc3ccccc3)nc3ccccc32)cc1
A: NO

Q: Check the results log: what was the call for CN(C)CC(CCC(CN(C)C)C(O)(c1ccccc1)c1ccccc1)C(O)(c1ccccc1)c1ccccc1 (stereo not given) ?
A: NO

Q: Recorded call for Cc1cc(Cl)cc(C)c1OCCCCCn1ccnc1 ?
A: YES

Q: Fill in: this test's call for CC1Oc2ccccc2C=C1/C=N/Nc1ccc(C(=O)O)cc1 (stereo not given) is ___
A: NO

Q: // return assay outcome for Cc1onc(-c2c(F)cccc2Cl)c1C(=O)N(C)CC(=O)Nc1cccc(F)c1
A: NO

Q: Just curious, what result did CCCCn1c(SCC(=O)N2c3ccccc3Sc3ccccc32)nc2c1c(=O)n(C)c(=O)n2C get here?
A: NO

Q: Look up the recorded call for CCCCn1c(NCc2ccc(N(C)C)cc2)nc2ccccc21 in this test.
A: NO

Q: Dear all, I need the recorded test outcome for CCOC(=O)CC(NC(=O)c1cc2cc(Cl)cc(Cl)c2oc1=O)c1cccc([N+](=O)[O-])c1 (stereo not given) , thank you.
A: NO

Q: Field: outcome | Entry: Cc1ccc2[nH]c(C)c(CCN(Cc3cccnc3)C(=S)NC(C)(C)C)c2c1
A: NO

----------
- Test system: TRPC4 (mouse), co-expressed with 5HT1a in HEK293
- testDescription: enhancement of serotonin-evoked TRPC4 response – cell-based, second counter screen, HEK293 TRPC4/5HT1a, Fluo-4, counter-screen for TRPC4 potentiator project, confirmation (AID 434979)
- conditionParameters: Fluo-4 calcium flux, at 10 µM, serotonin added at its EC20 dose
Activity calls are given as the source filed them.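 How the source made its calls: active means signal rise over 3 SD above mean of control wells given weak agonist, in both repeats and first screen; inactive means the rest.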
Result category, one only: yes (active), no (inactive)

Q: Hey, what did the test say about O=C(CC1CCCCC1)c1c(O)c2ccccc2oc1=O ?
A: no

Q: Each compound tested received a call. Report the one for Cc1onc(-c2ccccc2)c1C(=O)NNC(=S)NC(=O)c1ccc2c(c1)OCO2 .
A: no

Q: # outcome recorded in this test, key = Cc1ccnc(NC(=O)COC(=O)C23CC4CC(CC(C4)C2)C3)n1
A: yes

Q: Identify the outcome logged in this assay for the compound shown: Cc1ccc2cc(CN(CCN3CCOCC3)C(=O)NCc3ccccc3)c(=O)[nH]c2c1C
A: no

Q: Fill in: this test's call for CC(=O)Nc1ccc(S(=O)(=O)Nc2nc3ccc(C)cc3s2)cc1 is ___
A: no
